Target: T1, TauC3 (C-terminally truncated tau fragment ending at aspartate 421 of htau40) (human, UniProt P10636 1-738)
T1 construct: Generated and purified by Genscript; also called Human TauC3; recombinant TauC3 protein
T1 sequence (P10636 other isoform, or with tags, fused parts or gaps): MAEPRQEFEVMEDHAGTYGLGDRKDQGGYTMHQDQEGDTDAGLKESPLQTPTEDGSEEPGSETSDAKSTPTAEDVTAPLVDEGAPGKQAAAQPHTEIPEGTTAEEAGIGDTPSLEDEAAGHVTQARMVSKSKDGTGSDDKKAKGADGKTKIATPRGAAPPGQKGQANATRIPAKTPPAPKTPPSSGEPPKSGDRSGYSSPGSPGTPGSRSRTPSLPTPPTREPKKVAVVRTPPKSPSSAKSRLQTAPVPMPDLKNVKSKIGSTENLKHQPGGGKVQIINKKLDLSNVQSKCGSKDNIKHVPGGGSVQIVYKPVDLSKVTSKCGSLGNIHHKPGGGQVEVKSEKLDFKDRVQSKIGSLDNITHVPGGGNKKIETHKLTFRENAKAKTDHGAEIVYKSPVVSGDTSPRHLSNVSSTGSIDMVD
Test: binding ELISA on coated TauC3, OD650
Listed binders paired with reported EC50
Give the value, in units of nM, as a plain number.

{"Binder": "Tau01 HCKB HuG4K (antibody, V domains shown, human IgG4 kappa (HuG4K)) VH: LVQLVESGGGLVQPGGSLKLSCAASGFTFNTYAMNWVRQASGKGLEWVGRIRSKSNNYATYYAASVKGRFTISRDDSKSMAYLQMDSLKTEDTAVYYCVGGGDFWGQGTLVTVSS VL: DIQMTQSPSSLSASVGDRVTITCRASQEISVYLSWFQQKPGKAIKRLIYGAFTLQSGVPSRFSGSRSGSEYTLTISSLQPEDFATYYCLQYVRYPWTFGGGTKVEIK", "Endpoint Unit": "nM", "EC50": 0.502}

Proceed to the following item.
// query So what does the record say about EC50 for Tau01 HNKA (antibody, V domains shown, human IgG4 kappa (HuG4K)) VH: LVQVVESGGGLVQPGGSLKLSCAASGFTFNTYAMNWVRQASGKGLEWVGRIRSKSNNYATYYAASVKGRFTISRDDSKSMAYLQMDSLKTEDTAVYYCVGGGDFWGQGTLVTVSS VL: DIQMTQSPSSLSASVGDRVTITCRASQEISVYLGWYQQKPGKAPKRLIYGAFKLQSGVPSRFSGSRSGTEFTLTISSLQPEDFATYYCLQYVRYPWTFGGGTKVEIK ?
// result 1.09
